src = BindingDB's records for doi:10.1016/j.ejmech.2013.06.030

The entries below come with measured pKi values attached.
molecular target: Delta-type opioid receptor (Homo sapiens, UniProt P41143); assay: Displacement of [3H]DADLE from human delta opioid receptor expressed in CHO cells after 2 hrs by liquid scintillation counting
Sequence (P41143 whole entry): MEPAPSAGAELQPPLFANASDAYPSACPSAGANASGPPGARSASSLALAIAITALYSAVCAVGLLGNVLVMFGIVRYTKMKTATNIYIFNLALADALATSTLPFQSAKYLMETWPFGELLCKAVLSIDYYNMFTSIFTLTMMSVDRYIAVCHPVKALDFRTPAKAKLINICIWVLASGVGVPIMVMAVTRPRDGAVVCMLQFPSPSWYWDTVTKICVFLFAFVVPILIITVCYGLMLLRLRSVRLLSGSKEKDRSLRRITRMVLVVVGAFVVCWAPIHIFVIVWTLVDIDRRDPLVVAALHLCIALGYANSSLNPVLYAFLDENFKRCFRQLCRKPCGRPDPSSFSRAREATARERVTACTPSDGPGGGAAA
// pKi is dimensionless: -log10 of concentration (M)

These recorded examples may help you get a feel for the data.
substance_smiles	pKi
C[C@H]1CC[C@@]2(c3cccc(O)c3)CCN(C)[C@@H]1C2	6.86
C[C@H]1C[C@H]2C[C@](c3cccc(O)c3)(CCN2C)C1	6.14
C[C@H]1CC[C@@]2(c3cccc(O)c3)CCN(CCc3ccccc3)[C@@H]1C2	6.90

Summary: Oc1cccc([C@]23CCN(CCc4ccccc4)[C@H](C2)[C@H]2CCCC[C@@H]2C3)c1 , Delta-type opioid receptor (Homo sapiens, UniProt P41143), pKi = 6.99

Hey, Delta-type opioid receptor (Homo sapiens, UniProt P41143) data for Oc1cccc([C@@]23CCN(CCc4ccccc4)[C@H](C[C@@H](O)C2)C3)c1 : pKi came out at 6.06

Lab note: compound Oc1cccc([C@@]23CCN(CCc4ccccc4)[C@@H](C[C@H](c4ccccc4)C2)C3)c1 tested on Delta-type opioid receptor (Homo sapiens, UniProt P41143); recorded pKi was 6.50

Tested on Delta-type opioid receptor (Homo sapiens, UniProt P41143): CN1CC[C@]2(c3cccc(O)c3)C[C@@H](c3ccccc3)C[C@H]1C2 . Observed pKi: 6.23

# lookup: C[C@H]1C[C@H]2C[C@](c3cccc(O)c3)(CCN2CCc2ccccc2)C1 on Delta-type opioid receptor (Homo sapiens, UniProt P41143), pKi = 6.59
